Hi there, I'd appreciate the recorded Nilaparvata lugens Mortality (%) 500 ppm for every entry that follows.
System: Nilaparvata lugens
Assay: Insecticidal activities to plant hopper, spraying method
Type: in vivo
Details: in vivo
Give bare numbers, in %.

[[record]]
molecule = "CCc1ccc(C(C)=C(C2=NCCN2Cc2ccc(Cl)nc2)[N+](=O)[O-])o1"
endpoint_result = 100

[[record]]
molecule = "CCN(Cc1ccc(Cl)nc1)C(=NC)C(=Cc1ccco1)[N+](=O)[O-] [Compound 241]"
endpoint_result = 76


// each molecule listed below needs its Nilaparvata lugens Mortality (%) 500 ppm
1. C[N+]1=C(C(=Cc2ccc([N+](=O)[O-])o2)[N+](=O)[O-])N(Cc2cnc(Cl)s2)CC1.[Cl-]
2. C[N+]1=C(C(=Cc2cc(Br)c(Br)s2)[N+](=O)[O-])N(Cc2ccc(Cl)nc2)CC1.[Cl-]
3. O=[N+]([O-])C(=Cc1ccc(CO)o1)C1=NCCCN1Cc1ccc(Cl)nc1

1: 100; 2: 100; 3: 56

// each molecule listed below needs its Nilaparvata lugens Mortality (%) 500 ppm
1. C[N+]1=C(C(=Cc2ccsc2)[N+](=O)[O-])N(Cc2ccc(Cl)nc2)CC1.[Cl-]
2. O=[N+]([O-])C(=Cc1oc(Br)cc1Br)C1=NCCN1Cc1ccc(Cl)nc1
3. O=[N+]([O-])C(=Cc1cc(Cl)co1)C1=NCCN1Cc1ccc(Cl)nc1
4. CC(=C(C1=NCCN1Cc1ccc(Cl)nc1)[N+](=O)[O-])c1ccc(C)o1

1: 92; 2: 100; 3: 100; 4: 100

// each molecule listed below needs its Nilaparvata lugens Mortality (%) 500 ppm
1. CCN(Cc1cnc(Cl)s1)C(=NC)C(=Cc1ccco1)[N+](=O)[O-]
2. CCN(Cc1cnc(Cl)s1)C(=NC)C(=Cc1ccc[nH]1)[N+](=O)[O-]

1. 78
2. 76
